Protocol Summary: PK in rat, oils or preformed emulsions by oral gavage
Set-up: species or system Sprague Dawley rats
Setup Conditions: Sprague-Dawley, in vivo, 100 mg/kg, crystalline ethanolate, Olive oil/Cremophor 80/20, 100 mg/kg
Quantity: Cmax (ng/mL)
Quick reminder: number only, in ng/mL, skip the unit.

Memo: CCOC(=O)N1c2ccc(C(F)(F)F)cc2[C@@H](N(Cc2cc(C(F)(F)F)cc(C(F)(F)F)c2)C(=O)OC)C[C@H]1CC [Compound A] , reported Cmax: 3600

###

Protocol Summary: Microsolubility estimate by repeated addition of vehicle
Assay type: physicochemical
Setup Conditions: Capmul MCM, oil or lipid, thermodynamic from solid; read-out: Microsolubility
Solubility reference

Reference set (2 entries):
CCCOC(=O)N1c2ccc(C(F)(F)F)cc2[C@@H](N(Cc2cc(C(F)(F)F)cc(C(F)(F)F)c2)C(C)=O)CC1C1CC1 (stereo in doubt)
> 300 mg/mL
CCOC(=O)N1c2ccc(C(F)(F)F)cc2[C@@H](N(C=O)Cc2cc(C(F)(F)F)cc(C(F)(F)F)c2)C[C@H]1CC
> 300 mg/mL

Consider the additional compound presented here.
Memo: CCOC(=O)N1c2cc(C(F)(F)F)ccc2[C@@H](N(Cc2cc(C(F)(F)F)cc(C(F)(F)F)c2)C(=O)OC)C[C@H]1C , reported Solubility: > 20 mg/mL
